Reference source: patent US7790751B2

Counter-ions that a name gives are not always drawn.
Listed here: items and their measured melting point.

{"Compound": "O=S(=O)(c1cccc2ccccc12)c1n[nH]c2ccc(OC3CCNCC3)cc12 (as salt: hydrochloride)", "Endpoint value": "174 to 176 °C (dec.)"}
{"Compound": "CN1CCC(Oc2ccc3[nH]nc(S(=O)(=O)c4cccc5ccccc45)c3c2)CC1 (as salt: hydrochloride)", "Endpoint value": "252 to 254 °C"}
{"Compound": "O=S(=O)(c1cccc2ccccc12)c1n[nH]c2ccc(OC3CCNC3)cc12 (stereo not drawn) (as salt: hydrochloride)", "Endpoint value": "168 to 170 °C (dec.)"}

The compound identified as `O=S(=O)(c1cccc2ccccc12)c1n[nH]c2ccc(OCC3CCNCC3)cc12` registered its melting point at 175 to 177 °C

The compound identified as O=S(=O)(c1cccc2ccccc12)c1n[nH]c2ccc(OC3CCCNC3)cc12 (stereo not drawn) registered its melting point at 178 to 180 °C

The compound identified as O=S(=O)(c1cccc2ccccc12)c1n[nH]c2ccc(OCC3CCCNC3)cc12 (stereo not drawn) registered its melting point at 168 to 170 °C

====

- Target desc: human cloned 5-HT6 receptors (Homo sapiens)
- Sequence (P50406 whole entry): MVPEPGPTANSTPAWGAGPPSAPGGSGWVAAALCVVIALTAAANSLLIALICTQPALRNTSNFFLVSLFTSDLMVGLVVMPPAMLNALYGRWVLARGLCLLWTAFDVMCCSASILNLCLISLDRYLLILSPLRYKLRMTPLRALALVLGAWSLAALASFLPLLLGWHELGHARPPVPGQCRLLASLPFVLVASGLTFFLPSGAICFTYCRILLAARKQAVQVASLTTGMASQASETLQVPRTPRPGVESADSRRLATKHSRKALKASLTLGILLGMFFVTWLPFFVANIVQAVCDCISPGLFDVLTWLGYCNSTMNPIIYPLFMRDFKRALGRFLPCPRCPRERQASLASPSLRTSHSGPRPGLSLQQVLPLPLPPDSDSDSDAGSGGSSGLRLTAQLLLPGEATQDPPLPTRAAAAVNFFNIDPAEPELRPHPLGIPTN
Counter-ions that a name gives are not always drawn.
Listed here: items and their measured Ki.

{"Molecule": "CCCN1CCC(Oc2ccc3[nH]nc(S(=O)(=O)c4cccc5ccccc45)c3c2)CC1 [Example 19, Hydrochloride]", "Ki": "0.01 to 10 nM"}
{"Molecule": "O=S(=O)(c1cccc2ccccc12)c1n[nH]c2cccc(NC3CCNCC3)c12 [Example 39, Dihydrochloride]", "Ki": "0.01 to 10 nM"}
{"Molecule": "CCN1CCC(Oc2ccc3[nH]nc(S(=O)(=O)c4cccc5ccccc45)c3c2)CC1 [Example 24, Hydrochloride]", "Ki": "0.01 to 10 nM"}
{"Molecule": "O=S(=O)(c1cccc(Cl)c1)c1n[nH]c2ccc(OC3CCNCC3)cc12", "Ki": "0.01 to 10 nM"}
{"Molecule": "O=S(=O)(c1cccc2ccccc12)c1n[nH]c2ccc(NCC3CCNCC3)cc12 [Example 31, Dihydrochloride]", "Ki": "0.01 to 10 nM"}

Now consider a different molecule.
The molecule identified as O=S(=O)(c1cccc2ccccc12)c1n[nH]c2ccc(OC3CCNCC3)cc12 [Example 6, Hydrochloride] registered its Ki at 0.01 to 10 nM

====

Let's go through some recorded Ki values for human cloned 5-HT6 receptors (Homo sapiens, UniProt P50406) together.
Counter-ions that a name gives are not always drawn.

For orientation, consider the following solved cases.
{"Compound": "CCCCN1CCC(Oc2ccc3[nH]nc(S(=O)(=O)c4cccc5ccccc45)c3c2)CC1 [Example 20, Hydrochloride]", "Target desc": "human cloned 5-HT6 receptors (Homo sapiens, UniProt P50406)", "Attribute measured": "Ki", "Endpoint value": "0.01 to 10 nM"}
{"Compound": "O=S(=O)(c1cccc2ccccc12)c1n[nH]c2ccc(OC3CCN(CCc4ccccc4)CC3)cc12 [Example 23, Hydrochloride]", "Target desc": "human cloned 5-HT6 receptors (Homo sapiens, UniProt P50406)", "Attribute measured": "Ki", "Endpoint value": "11 to 25 nM"}
{"Compound": "O=C(Nc1ccc2c(S(=O)(=O)c3cccc4ccccc34)n[nH]c2c1)C1CCNCC1 [Example 53, Dihydrochloride]", "Target desc": "human cloned 5-HT6 receptors (Homo sapiens, UniProt P50406)", "Attribute measured": "Ki", "Endpoint value": "26 to 35 nM"}
{"Compound": "O=S(=O)(c1cccc2ccccc12)c1n[nH]c2cccc(NC3CCCNC3)c12 (stereo not drawn) [Example 40, Dihydrochloride]", "Target desc": "human cloned 5-HT6 receptors (Homo sapiens, UniProt P50406)", "Attribute measured": "Ki", "Endpoint value": "0.01 to 10 nM"}
{"Compound": "CN1CCC(Oc2ccc3[nH]nc(S(=O)(=O)c4cccc5ccccc45)c3c2)CC1 [Example 21, Hydrochloride]", "Target desc": "human cloned 5-HT6 receptors (Homo sapiens, UniProt P50406)", "Attribute measured": "Ki", "Endpoint value": "0.01 to 10 nM"}
{"Compound": "O=S(=O)(c1cccc(F)c1)c1n[nH]c2ccc(NC3CCNCC3)cc12 [Example 45]", "Target desc": "human cloned 5-HT6 receptors (Homo sapiens, UniProt P50406)", "Attribute measured": "Ki", "Endpoint value": "0.01 to 10 nM"}

With human cloned 5-HT6 receptors (Homo sapiens, UniProt P50406) as the test system, O=S(=O)(c1cccc2ccccc12)c1n[nH]c2ccc(OC3CCN(CCc4ccccc4)C3)cc12 (stereo not drawn) [Example 26, Hydrochloride] showed Ki of 11 to 25 nM

With human cloned 5-HT6 receptors (Homo sapiens, UniProt P50406) as the test system, O=S(=O)(c1cccc2ccccc12)c1n[nH]c2ccc(NC3CCNCC3)cc12 [Example 30, Dihydrochloride] showed Ki of 0.01 to 10 nM

With human cloned 5-HT6 receptors (Homo sapiens, UniProt P50406) as the test system, CC(C)N1CCC(Oc2ccc3[nH]nc(S(=O)(=O)c4cccc5ccccc45)c3c2)C1 (stereo not drawn) [Example 4, Hydrochloride] showed Ki of 0.01 to 10 nM
